# test.system: T1, human PD-1 expressed on cells (human, UniProt Q15116 25-288)
# T1 construct: whole, on cells
# T1 sequence (Q15116 25-288): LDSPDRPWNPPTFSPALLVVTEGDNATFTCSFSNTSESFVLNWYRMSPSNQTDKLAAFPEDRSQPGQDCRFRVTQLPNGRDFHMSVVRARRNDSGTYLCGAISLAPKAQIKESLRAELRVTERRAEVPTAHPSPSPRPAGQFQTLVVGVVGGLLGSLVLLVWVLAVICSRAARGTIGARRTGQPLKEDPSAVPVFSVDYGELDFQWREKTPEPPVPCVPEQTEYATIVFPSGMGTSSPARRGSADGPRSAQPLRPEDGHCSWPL
# experiment.summary: flow cytometry, SEB-activated PBMC donor one
Below, each of the binders is paired with its reported MFI at 100 nM value.
recorded.metric: MFI at 100 nM (MFI)

23A11 (antibody, human IgG1, V domains shown) VH: QVQLVQSGAEVKKPGSSVKVSCKASGYTFTDYSLHWVRQAPGQGLEWMGEVIPMFDTAYYAQTFQGRVTITADESTSTAYMELSSLRSEDTAVYYCAREPFTMVRGGRYYYYGMDVWGQGTTVTVSS VL: DIQMTQSPSSLSASVGDRVTITCRASQNINKNLNWYQQKPGKAPKLLIYDASNLQSGVPSRFSGSGSGTDFTLTISSLQPEDFATYYCQHSETFGQGTKVEIK	14.6
23A8 (antibody, human IgG1, V domains shown) VH: EVQLLESGGGLVQPGGSLRLSCAASGFTFSSSAMHWVRQAPGKGLEWVSGISGSGSSTYYADSVKGRFTISRDNSKNTLYLQMNSLRAEDTAVYYCARDNNYYYYMDVWGKGTTVTVSS VL: DIQMTQSPSSLSASVGDRVTITCRASQSIGTWLAWYQQKPGKAPKLLIYAASTLRSGVPSRFSGSGSGTDFTLTISSLQPEDFATYYCQQSYSTPYTFGQGTKLEIK	19.9
19B6 (antibody, V domains shown) VH: QVQLVQSGAEVKKPGASVKVSCKASGYTFTGYYMHWVRQAPGQGLEWMGIINPSGGSTSYAQKFQGRVTMTRDTSTSTVYMELSSLRSEDTAVYYCAKTAGYDWLPSGLGMDVWGQGTTVTVSS VL: DIQMTQSPSSLSASVGDRVTITCRASQSINSWLAWYQQKPGKAPKLLIYYASSLQSGVPSRFSGSGSGTDFTLTISSLQPEDFATYYCQQGYSVPLSFGQGTKLEIK	13.7
